# Tested on: C57BL/6 mice
# assay.text: Automated (video tracking) head twitch response (HTR) assay in mice
# Assay type: in vivo
# condition.summary: SC, dose giving the most HTR
experimental.readout: Most Efficacious Dose; mg/kg

Known results for compounds:
> print(dat)
                                   compound          experimental.readout   meas.value
1  CCC(N)Cc1nc(OC)c(Cl)cc1OC (stereo not drawn)  Most Efficacious Dose; mg/kg   (10) mg/kg
2  CCCCCCc1cc(OC)c(CCN)cc1OC [Compound 44, reference compound]  Most Efficacious Dose; mg/kg  (3.2) mg/kg
3                     COc1cc(Br)c(OC)nc1CCN  Most Efficacious Dose; mg/kg  (3.2) mg/kg
4                 CCCCCCc1cc(OC)c(CCN)nc1OC  Most Efficacious Dose; mg/kg  (3.2) mg/kg
5          COc1cc(CCCCCC(F)(F)F)c(OC)nc1CCN  Most Efficacious Dose; mg/kg  (3.2) mg/kg

# Most Efficacious Dose; mg/kg (compound: COc1cc(CC(C)N)c(OC)cc1I (stereo not drawn) [DOI, reference compound] ) is (3.2) mg/kg

# Most Efficacious Dose; mg/kg (compound: CCCCc1cc(OC)c(CCN)nc1OC ) is (3.2) mg/kg

# Most Efficacious Dose; mg/kg (compound: CCCc1cc(OC)c(CCN)nc1OC ) is (10) mg/kg
